Exercise: state measured IC50 for each of the molecules provided.
- System: K562
- protocol details: Antiproliferative activity against human K562 cells assessed as inhibition of cell growth incubated for 72 hrs by MTT assay
- Type: functional, cell-based
- condition notes: K562, 72 h
I only need the number, in µM, no unit after it.

*Q* Find the recorded IC50 belonging to N[C@H]1CCN(C(=O)C2Cc3c(O)c4c(c(O)c3C2)C(=O)c2ccccc2C4=O)C1 and report it.
*A* 1.9

*Q* Entry O=C1c2ccccc2C(=O)c2c(O)c3c(c(O)c21)CC(C(=O)NC1CNC1)C3 please
*A* 2.7

*Q* Entry NCCN(CCN)C(=O)C1Cc2c(O)c3c(c(O)c2C1)C(=O)c1ccccc1C3=O please
*A* 1.9

*Q* Entry O=C1c2ccccc2C(=O)c2c(O)c3c(c(O)c21)CC(C(=O)N[C@H]1CCNC1)C3 please
*A* 2.4

*Q* Entry O=C1c2ccccc2C(=O)c2c(O)c3c(c(O)c21)CC(C(=O)N1CCC(N2CCCCC2)CC1)C3 please
*A* 2

*Q* Entry O=C1c2ccccc2C(=O)c2c(O)c3c(c(O)c21)CC(C(=O)NC1CCNCC1)C3 please
*A* 1.6

*Q* Entry O=C1c2ccccc2C(=O)c2c(O)c3c(c(O)c21)CC(C(=O)N[C@@H]1CCNC1)C3 please
*A* 2.1

*Q* Entry O=C1c2ccccc2C(=O)c2c(O)c3c(c(O)c21)CC(C(=O)N1CCNCC1)C3 please
*A* 1.3

====

Exercise: state measured logD for each of the compounds provided.
- protocol details: Octanol/water partition coefficient, logP of compound at pH 7.4 by HPLC analysis
- Format: physicochemical
Lab note: write the figure by itself, no unit.

*Q* Find the recorded logD belonging to N[C@H]1CCN(C(=O)C2Cc3c(O)c4c(c(O)c3C2)C(=O)c2ccccc2C4=O)C1 and report it.
*A* 1.56

*Q* Entry COc1cccc2c1C(=O)c1c(O)c3c(c(O)c1C2=O)C[C@@](O)(C(=O)CO)C[C@@H]3O[C@H]1C[C@H](N)[C@H](O)[C@H](C)O1 please
*A* 0.3

*Q* Entry CC(=O)[C@]1(O)Cc2c(O)c3c(c(O)c2[C@@H](O[C@H]2C[C@H](N)[C@H](O)[C@H](C)O2)C1)C(=O)c1c(O)cccc1C3=O please
*A* 0.95

====

Exercise: state measured Kb for each of the compounds provided.
- System: Calf thymus DNA
- protocol details: Binding affinity to calf thymus DNA assessed as binding constant at 10 uM by fluorescence spectroscopy analysis
- Format: nucleic-acid assay
- condition notes: Bos taurus

*Q* Find the recorded Kb belonging to COc1cccc2c1C(=O)c1c(O)c3c(c(O)c1C2=O)C[C@@](O)(C(=O)CO)C[C@@H]3O[C@H]1C[C@H](N)[C@H](O)[C@H](C)O1 and report it.
*A* 1.4 10^6/M

*Q* Entry O=C1c2ccccc2C(=O)c2c(O)c3c(c(O)c21)CC(C(=O)NCCOCCO)C3 please
*A* 0.011 10^6/M

*Q* Entry N[C@H]1CCN(C(=O)C2Cc3c(O)c4c(c(O)c3C2)C(=O)c2ccccc2C4=O)C1 please
*A* 0.35 10^6/M

*Q* Entry N[C@@H]1CN(C(=O)C2Cc3c(O)c4c(c(O)c3C2)C(=O)c2ccccc2C4=O)C[C@H]1N please
*A* 0.31 10^6/M

====

- protocol details: Antiproliferative activity against human DND41 cells assessed as inhibition of cell growth incubated for 72 hrs by MTT assay
- Type: functional, cell-based
- condition notes: DND41, 72 h
Field 'label' (enum: MET / NOT MET). Set to MET when IC50 is strictly under 3000 nM; else NOT MET.

*Q* Take the compound O=C1c2ccccc2C(=O)c2c(O)c3c(c(O)c21)CC(C(=O)N[C@H]1CCNC1)C3 and say whether its IC50 is less than 3000 nM.
*A* MET

*Q* Entry N[C@@H]1CCN(C(=O)C2Cc3c(O)c4c(c(O)c3C2)C(=O)c2ccccc2C4=O)C1 please
*A* MET

*Q* Entry O=C1c2ccccc2C(=O)c2c(O)c3c(c(O)c21)CC(C(=O)NC1CNC1)C3 please
*A* NOT MET

*Q* Entry CN1CCN(C(=O)C2Cc3c(O)c4c(c(O)c3C2)C(=O)c2ccccc2C4=O)CC1 please
*A* NOT MET

*Q* Entry O=C1c2ccccc2C(=O)c2c(O)c3c(c(O)c21)CC(C(=O)N1CCC(N2CCCCC2)CC1)C3 please
*A* MET

====

- System: K562
- protocol details: Antiproliferative activity against human K562 cells assessed as inhibition of cell growth incubated for 72 hrs by MTT assay
- Assay type: functional, cell-based
- condition notes: K562, 72 h
Exercise: state measured IC50 for each of the molecules provided.
I only need the number, in nM, no unit after it.

*Q* Give K562 IC50 for O=C1c2ccccc2C(=O)c2c(O)c3c(c(O)c21)CC(C(=O)NC1CCCNC1)C3 (centres undefined)
*A* 1700

*Q* Entry N[C@@H]1CN(C(=O)C2Cc3c(O)c4c(c(O)c3C2)C(=O)c2ccccc2C4=O)C[C@H]1N please
*A* 2800

*Q* Entry NCCNC(=O)C1Cc2c(O)c3c(c(O)c2C1)C(=O)c1ccccc1C3=O please
*A* 2100

*Q* Entry NCCCNC(=O)C1Cc2c(O)c3c(c(O)c2C1)C(=O)c1ccccc1C3=O please
*A* 3700

*Q* Entry N[C@H]1CC[C@H](NC(=O)C2Cc3c(O)c4c(c(O)c3C2)C(=O)c2ccccc2C4=O)CC1 please
*A* 2000

*Q* Entry N[C@@H]1CCN(C(=O)C2Cc3c(O)c4c(c(O)c3C2)C(=O)c2ccccc2C4=O)C1 please
*A* 2000

*Q* Entry O=C1c2ccccc2C(=O)c2c(O)c3c(c(O)c21)CC(C(=O)NC1CN2CCC1CC2)C3 (centres undefined) please
*A* 1600

*Q* Entry NC1CCCN(C(=O)C2Cc3c(O)c4c(c(O)c3C2)C(=O)c2ccccc2C4=O)C1 (centres undefined) please
*A* 1700

====

Exercise: state measured IC50 at 72 h for each of the compounds provided.
- protocol details: Cytotoxicity against hFB-hTERT6 cells assessed as inhibition of cell growth incubated for 72 hrs by MTT assay
- Format: toxicity, cell-based
- condition notes: human
I only need the number, in µM, no unit after it.

*Q* Find the recorded IC50 at 72 h belonging to N[C@@H]1CCN(C(=O)C2Cc3c(O)c4c(c(O)c3C2)C(=O)c2ccccc2C4=O)C1 and report it.
*A* 4.7

*Q* Entry NCCNC(=O)C1Cc2c(O)c3c(c(O)c2C1)C(=O)c1ccccc1C3=O please
*A* 4

*Q* Entry N[C@H]1CCN(C(=O)C2Cc3c(O)c4c(c(O)c3C2)C(=O)c2ccccc2C4=O)C1 please
*A* 4.2

*Q* Entry O=C1c2ccccc2C(=O)c2c(O)c3c(c(O)c21)CC(C(=O)NC1CCNCC1)C3 please
*A* 4.5

*Q* Entry O=C1c2ccccc2C(=O)c2c(O)c3c(c(O)c21)CC(C(=O)NC1CCCNC1)C3 (centres undefined) please
*A* 4.2

*Q* Entry O=C1c2ccccc2C(=O)c2c(O)c3c(c(O)c21)CC(C(=O)NC1CNC1)C3 please
*A* 4.3

*Q* Entry NCCCNC(=O)C1Cc2c(O)c3c(c(O)c2C1)C(=O)c1ccccc1C3=O please
*A* 6.5

*Q* Entry N[C@@H]1CN(C(=O)C2Cc3c(O)c4c(c(O)c3C2)C(=O)c2ccccc2C4=O)C[C@H]1N please
*A* 23

*Q* Entry O=C1c2ccccc2C(=O)c2c(O)c3c(c(O)c21)CC(C(=O)NC1CN2CCC1CC2)C3 (centres undefined) please
*A* 2.4

====

- Tested on: HCT-116
- protocol details: Antiproliferative activity against human HCT-116 cells assessed as inhibition of cell growth incubated for 72 hrs by MTT assay
- Type: functional, cell-based
- condition notes: HCT-116, 72 h
Exercise: state measured pIC50 for each of the molecules provided.
Please note pIC50 is a logarithmic value: minus log10 of concentration in mol/L. Answer with that number alone.

*Q* Find the recorded pIC50 belonging to N[C@H]1CCN(C(=O)C2Cc3c(O)c4c(c(O)c3C2)C(=O)c2ccccc2C4=O)C1 and report it.
*A* 5.72

*Q* Entry O=C1c2ccccc2C(=O)c2c(O)c3c(c(O)c21)CC(C(=O)N[C@H]1CCNC1)C3 please
*A* 5.82

*Q* Entry O=C1c2ccccc2C(=O)c2c(O)c3c(c(O)c21)CC(C(=O)NC1CN2CCC1CC2)C3 (stereo not given) please
*A* 5.82

*Q* Entry NC1CCCN(C(=O)C2Cc3c(O)c4c(c(O)c3C2)C(=O)c2ccccc2C4=O)C1 (stereo not given) please
*A* 5.49

*Q* Entry O=C1c2ccccc2C(=O)c2c(O)c3c(c(O)c21)CC(C(=O)N[C@@H]1CCNC1)C3 please
*A* 5.80

Reference source for all entries: ChEMBL document CHEMBL5528031
